- Test system: 317291-083-R-J1-PDC complex spheroids, viability
- PROTOCOL_TEXT: Anticancer human tumor 317291-083-R-J1-PDC patient-derived soft tissue sarcoma cell line growth inhibition [GQUAD]; active = viability on the fitted dose curve at most 10% of control; inactive = the rest
- TEST_CONTEXT: second compound 1 µM; first compound 1 µM
Choose the fitting class; nothing outside active, inactive is accepted.

Check out these entries, answers already filled in.
| MOLECULE | CATEGORY |
| --- | --- |
| CCCS(=O)(=O)Nc1ccc(F)c(C(=O)c2c[nH]c3ncc(-c4ccc(Cl)cc4)cc23)c1F + CN(C)c1ccc(Nc2c3ccc(NC(=O)CCN4CCCC4)cc3nc3cc(NC(=O)CCN4CCCC4)ccc23)cc1 | inactive |
| C=CCn1c(=O)c2cnc(Nc3ccc(N4CCN(C)CC4)cc3)nc2n1-c1cccc(C(C)(C)O)n1 + Cc1cnc(CNC(=O)c2c(=O)c3ccc(N4CCCN(C)CC4)nc3n3c2sc2ccccc23)cn1 | inactive |
| CC(=O)O[C@H]1C(=O)[C@@]2(C)[C@H]([C@H](OC(=O)c3ccccc3)[C@]3(O)C[C@H](OC(=O)[C@H](O)[C@@H](NC(=O)c4ccccc4)c4ccccc4)C(C)=C1C3(C)C)[C@]1(OC(C)=O)CO[C@@H]1C[C@@H]2O + CN(C)c1ccc(Nc2c3ccc(NC(=O)CCN4CCCC4)cc3nc3cc(NC(=O)CCN4CCCC4)ccc23)cc1 | active |

Attention now shifts to the item below.
Lookup: Dear colleague, could you share the recorded outcome for C=CC(=O)N1CCN(c2nc(=O)n(-c3c(C)ccnc3C(C)C)c3nc(-c4c(O)cccc4F)c(F)cc23)C(C)C1 (centres undefined) + CN(C)c1ccc(Nc2c3ccc(NC(=O)CCN4CCCC4)cc3nc3cc(NC(=O)CCN4CCCC4)ccc23)cc1 when you have a moment?
Found: inactive

----------
- Test system: 317291-083-R-J1-PDC complex spheroids, viability
- PROTOCOL_TEXT: Anticancer human tumor 317291-083-R-J1-PDC cell line growth inhibition [GQUAD];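 also: spheroids exposed to compounds for one week before readout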
- TEST_CONTEXT: second compound 0.0316 µM; first compound 3.16 µM; hits give low values
Would you mind classing the entries by viability, T/C? Ranges: LOW: < 30%; MEDIUM: ≥ 30% and < 80%; HIGH: ≥ 80%

Check out these entries, answers already filled in.
| COMPOUND | CATEGORY |
| --- | --- |
| O=C(NO)c1cnc(N2CCN(S(=O)(=O)c3ccc4ccccc4c3)CC2)nc1 + Cc1cnc(CNC(=O)c2c(=O)c3ccc(N4CCCN(C)CC4)nc3n3c2sc2ccccc23)cn1 | LOW |
| COc1cc(C2c3cc4c(cc3C(OC3OC5COC(C)OC5C(O)C3O)C3COC(=O)C23)OCO4)cc(OC)c1O (stereo unspecified) + CN(C)c1ccc(Nc2c3ccc(NC(=O)CCN4CCCC4)cc3nc3cc(NC(=O)CCN4CCCC4)ccc23)cc1 | LOW |
| CC1COCCN1c1cc(C2(S(C)(=N)=O)CC2)nc(-c2ccnc3[nH]ccc23)n1 (stereo unspecified) + CN(C)c1ccc(Nc2c3ccc(NC(=O)CCN4CCCC4)cc3nc3cc(NC(=O)CCN4CCCC4)ccc23)cc1 | LOW |
| CCCS(=O)(=O)Nc1ccc(F)c(C(=O)c2c[nH]c3ncc(-c4ccc(Cl)cc4)cc23)c1F + Cc1[nH]c2ccc(F)cc2c1-c1nc2c3cccnc3c3ncccc3c2[nH]1 | MEDIUM |
| CC(C)n1c(=O)n(C)c2cnc3cc(F)c(-c4ccc(OCCCN5CCCCC5)nc4)cc3c21 + Cc1[nH]c2ccc(F)cc2c1-c1nc2c3cccnc3c3ncccc3c2[nH]1 | HIGH |

Lookup: Band for O=c1[nH]cc(F)c(=O)[nH]1 + CN(C)c1ccc(Nc2c3ccc(NC(=O)CCN4CCCC4)cc3nc3cc(NC(=O)CCN4CCCC4)ccc23)cc1 ?
Found: MEDIUM

Lookup: Band for CC1COCCN1c1cc(C2(O)CC3CCC(C2)O3)c2cnn(-c3ccn[nH]3)c2n1 (stereo unspecified) + Cc1[nH]c2ccc(F)cc2c1-c1nc2c3cccnc3c3ncccc3c2[nH]1 ?
Found: LOW

Lookup: Band for COc1ccc([C@@H](O)c2cc(-c3ncnc4cc(N5CCOCC5)ccc34)c(F)cc2Cl)nn1 + Cc1cnc(CNC(=O)c2c(=O)c3ccc(N4CCCN(C)CC4)nc3n3c2sc2ccccc23)cn1 ?
Found: MEDIUM

Lookup: Band for Cc1cccc(N(C)C(=O)C2C(O)CCN2c2nc(C)cc(C(F)(F)F)c2C#N)c1 (stereo unspecified) + CN(C)c1ccc(Nc2c3ccc(NC(=O)CCN4CCCC4)cc3nc3cc(NC(=O)CCN4CCCC4)ccc23)cc1 ?
Found: HIGH
